We begin with a simple list: items and their reported efflux ratio at 90 min, 10 μM.
- run description: Caco-2 assay (permeability PappAB, PappBA, efflux ratio)
- Assay type: in vitro ADME
- test context: human, Caco-2; efflux ratio PappBA/PappAB; 10 μM test compound, pH 7.4; read-out: Caco ER
The answer should be a number; do not append a unit.

Below are worked cases with known answers.
# input compound: C[C@H](Oc1cc(-c2ccn(C[C@@H]3CCCO3)n2)nc(-c2noc3c2CCC[C@@]32CCCc3sc(N)c(C#N)c32)n1)[C@@H]1CCCN1C [II-43] ; wanted: its efflux ratio at 90 min, 10 μM
1.2

# input compound: C[C@H](Oc1cc(N2CC[C@H](N3CCCC3)C2)nc(-c2noc3c2CCC[C@@]32CCCc3sc(N)c(C#N)c32)n1)[C@@H]1CCCN1C [II-14] ; wanted: its efflux ratio at 90 min, 10 μM
32.3

# input compound: C[C@H](Oc1cc(-c2ccn([C@H]3CCOC3)n2)nc(-c2noc3c2CCC[C@@]32CCCc3sc(N)c(C#N)c32)n1)[C@@H]1CCCN1C [II-127] ; wanted: its efflux ratio at 90 min, 10 μM
4.1

# input compound: C[C@H](O)Cn1ncc(-c2cc(O[C@@H](C)[C@@H]3CCCN3C)nc(-c3noc4c3CCC[C@@]43CCCc4sc(N)c(C#N)c43)n2)n1 [II-134] ; wanted: its efflux ratio at 90 min, 10 μM
8

# input compound: C[C@H](Oc1cc(-c2ccn([C@H]3CCCOC3)n2)nc(-c2noc3c2CCC[C@@]32CCCc3sc(N)c(C#N)c32)n1)[C@@H]1CCCN1C [II-42] ; wanted: its efflux ratio at 90 min, 10 μM
2

# input compound: C[C@H](Oc1cc(-c2ccn(C)n2)nc(-c2noc3c2CCC[C@@]32CCCc3sc(N)c(C#N)c32)n1)[C@@H]1CCCN1C [II-96] ; wanted: its efflux ratio at 90 min, 10 μM
7.3

Now look at this entry.
# input compound: C[C@H](NC(=O)c1ccn(-c2cc(O[C@@H](C)[C@@H]3CCCN3C)nc(-c3noc4c3CCC[C@@]43CCCc4sc(N)c(C#N)c43)n2)n1)c1ccccn1 [II-191] ; wanted: its efflux ratio at 90 min, 10 μM
2.5

====

- System: NCI-H2122 cells
- run description: NCI-H2122 CTG proliferation assay (120 h) (NSCLC, G12C)
- Assay type: cell-based
- test context: Homo sapiens
We begin with a simple list: items and their reported IC50.
A number alone suffices; assume nM.

Below are worked cases with known answers.
# input compound: C[C@H](Oc1cc(N2CCNC[C@@]23CCOC3)nc(-c2onc3c2CCC[C@@]32CCCc3sc(N)c(C#N)c32)n1)[C@@H]1CCCN1C [I-13] ; wanted: its IC50
6470

# input compound: C[C@H](Oc1cc(-c2ccn(C3COC3)n2)nc(-c2noc3c2CCC[C@@]32CCCc3sc(N)c(C#N)c32)n1)[C@@H]1CCCN1C [II-109] ; wanted: its IC50
441

# input compound: C[C@H](Oc1cc(-c2ccn(-c3ccccc3)n2)nc(-c2noc3c2CCC[C@@]32CCCc3sc(N)c(C#N)c32)n1)[C@@H]1CCCN1C [II-89] ; wanted: its IC50
1530

# input compound: CCOC(=O)c1ccn(-c2cc(O[C@@H](C)[C@@H]3CCCN3C)nc(-c3noc4c3CCC[C@@]43CCCc4sc(N)c(C#N)c43)n2)n1 [II-23] ; wanted: its IC50
2950

# input compound: C[C@H](Oc1cc(-c2ccn(C)n2)nc(-c2noc3c2CCC[C@@]32CCCc3sc(N)c(C#N)c32)n1)[C@@H]1C[C@@H](F)CN1C [II-27] ; wanted: its IC50
898

Others:
# input compound: CO[C@@H]1C[C@@H]([C@H](C)Oc2cc(-c3ccn(C4COC4)n3)nc(-c3noc4c3CCC[C@@]43CCCc4sc(N)c(C#N)c43)n2)N(C)C1 [II-107] ; wanted: its IC50
5720
